- CONDITION_LABEL: in methanol, 285.65 K
RECORDED_ENDPOINT: solubility (mole fraction)

In: // query solubility (mole fraction) value for entry CN(C/C=C/C#CC(C)(C)C)Cc1cccc2ccccc12.Cl
Out: 0.0439

###

- CONDITION_LABEL: in n-propanol, 313.15 K
RECORDED_ENDPOINT: solubility (mole fraction)

In: // query solubility (mole fraction) value for entry CN(C/C=C/C#CC(C)(C)C)Cc1cccc2ccccc12.Cl
Out: 0.0301

###

- CONDITION_LABEL: in ethyl acetate, 283.15 K
RECORDED_ENDPOINT: solubility (mole fraction)

In: // query solubility (mole fraction) value for entry CN(C/C=C/C#CC(C)(C)C)Cc1cccc2ccccc12.Cl
Out: 0.00304

###

- CONDITION_LABEL: in n-propanol, 308.15 K
RECORDED_ENDPOINT: solubility (mole fraction)
I'd appreciate a reply containing only the number, no unit.

In: // query solubility (mole fraction) value for entry CN(C/C=C/C#CC(C)(C)C)Cc1cccc2ccccc12.Cl
Out: 0.028

###

- CONDITION_LABEL: in methanol, 310.65 K
RECORDED_ENDPOINT: solubility (mole fraction)

In: // query solubility (mole fraction) value for entry CN(C/C=C/C#CC(C)(C)C)Cc1cccc2ccccc12.Cl
Out: 0.061

###

- CONDITION_LABEL: in n-propanol, 288.15 K
RECORDED_ENDPOINT: solubility (mole fraction)
I'd appreciate a reply containing only the number, no unit.

In: // query solubility (mole fraction) value for entry CN(C/C=C/C#CC(C)(C)C)Cc1cccc2ccccc12.Cl
Out: 0.0214

###

- CONDITION_LABEL: in ethanol, 313.15 K
RECORDED_ENDPOINT: solubility (mole fraction)
I'd appreciate a reply containing only the number, no unit.

In: // query solubility (mole fraction) value for entry CN(C/C=C/C#CC(C)(C)C)Cc1cccc2ccccc12.Cl
Out: 0.0379

###

- CONDITION_LABEL: in n-propanol, 283.15 K
RECORDED_ENDPOINT: solubility (mole fraction)
I'd appreciate a reply containing only the number, no unit.

In: // query solubility (mole fraction) value for entry CN(C/C=C/C#CC(C)(C)C)Cc1cccc2ccccc12.Cl
Out: 0.02

###

- CONDITION_LABEL: in ethyl acetate, 313.15 K
RECORDED_ENDPOINT: solubility (mole fraction)
I'd appreciate a reply containing only the number, no unit.

In: // query solubility (mole fraction) value for entry CN(C/C=C/C#CC(C)(C)C)Cc1cccc2ccccc12.Cl
Out: 0.015

###

- CONDITION_LABEL: in ethyl acetate, 280.65 K
RECORDED_ENDPOINT: solubility (mole fraction)
I'd appreciate a reply containing only the number, no unit.

In: // query solubility (mole fraction) value for entry CN(C/C=C/C#CC(C)(C)C)Cc1cccc2ccccc12.Cl
Out: 0.00255

###

- CONDITION_LABEL: in methanol, 288.15 K
RECORDED_ENDPOINT: solubility (mole fraction)
I'd appreciate a reply containing only the number, no unit.

In: // query solubility (mole fraction) value for entry CN(C/C=C/C#CC(C)(C)C)Cc1cccc2ccccc12.Cl
Out: 0.0453

###

- CONDITION_LABEL: in n-propanol, 278.15 K
RECORDED_ENDPOINT: solubility (mole fraction)
I'd appreciate a reply containing only the number, no unit.

In: // query solubility (mole fraction) value for entry CN(C/C=C/C#CC(C)(C)C)Cc1cccc2ccccc12.Cl
Out: 0.0187
